- Tested on: 292921-168-R tumor spheroid viability
- EXPERIMENTAL PROTOCOL: Anticancer human tumor 292921-168-R patient-derived pancreatic carcinoma cell line growth inhibition
- STUDY CONDITIONS: second compound 0.000949 µM; first compound 3.16 µM; active compounds read low; spheroids with HUVEC and MSC
Binary label based on viability, T/C with cut-off 3%: below gives met, not below gives not met.

Worked examples follow.
Cc1cc(C)c(CNC(=O)c2cc(-c3ccc(CN4CCOCC4)cc3)cc3c2cnn3C2CCCC2)c(=O)[nH]1 + COc1cc2c(cc1O)CCNC21CSC2c3c(OC(C)=O)c(C)c4c(c3C(COC1=O)N1C(O)C3Cc5cc(C)c(OC)c(O)c5C(C21)N3C)OCO4 : not met
CC1COCCN1c1cc(-c2ccnn2C)c2ccnc(-c3ccn[nH]3)c2n1 (stereo unspecified) + COc1cc2c(cc1O)CCNC21CSC2c3c(OC(C)=O)c(C)c4c(c3C(COC1=O)N1C(O)C3Cc5cc(C)c(OC)c(O)c5C(C21)N3C)OCO4 : met

(Q) is_below(viability, T/C, 3%) for COc1cc(C)[nH]c(=O)c1CN1CCc2c(Cl)cc(C(OC)C3COC3)c(Cl)c2C1=O (stereo unspecified) + COc1cc2c(cc1O)CCNC21CSC2c3c(OC(C)=O)c(C)c4c(c3C(COC1=O)N1C(O)C3Cc5cc(C)c(OC)c(O)c5C(C21)N3C)OCO4 ?
(A) met

(Q) is_below(viability, T/C, 3%) for [2H]c1nc(C)nc([2H])c1-c1cc(NC[C@@H](C)c2cccc3c(C(=O)NC)ccnc23)ncn1 + COc1cc2c(cc1O)CCNC21CSC2c3c(OC(C)=O)c(C)c4c(c3C(COC1=O)N1C(O)C3Cc5cc(C)c(OC)c(O)c5C(C21)N3C)OCO4 ?
(A) not met

(Q) is_below(viability, T/C, 3%) for COc1ccc([C@@H](O)c2cc(-c3ncnc4cc(N5CCOCC5)ccc34)c(F)cc2Cl)nn1 + COc1cc2c(cc1O)CCNC21CSC2c3c(OC(C)=O)c(C)c4c(c3C(COC1=O)N1C(O)C3Cc5cc(C)c(OC)c(O)c5C(C21)N3C)OCO4 ?
(A) met

(Q) is_below(viability, T/C, 3%) for CC(C)n1c(=O)n(C)c2cnc3cc(F)c(-c4ccc(OCCCN5CCCCC5)nc4)cc3c21 + COc1cc2c(cc1O)CCNC21CSC2c3c(OC(C)=O)c(C)c4c(c3C(COC1=O)N1C(O)C3Cc5cc(C)c(OC)c(O)c5C(C21)N3C)OCO4 ?
(A) not met

###

- Test system: 292921-168-R tumor spheroid viability
- EXPERIMENTAL PROTOCOL: Anticancer human tumor 292921-168-R cell line growth inhibition;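 also: spheroids exposed to compounds for 7 days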
- STUDY CONDITIONS: second compound 10 µM; first compound 3.16 µM; active compounds read low; spheroids with HUVEC and MSC
MEASURED METRIC: viability, T/C (%)
# number only, unit % dropped from output

Reference set, count: 5
CC1COCCN1c1cc(-c2ccnn2C)c2ccnc(-c3ccn[nH]3)c2n1 (stereo unspecified) + Cn1nnc2c(C(N)=O)ncn2c1=O : 15.2
[2H]c1nc(C)nc([2H])c1-c1cc(NC[C@@H](C)c2cccc3c(C(=O)NC)ccnc23)ncn1 + Cn1nnc2c(C(N)=O)ncn2c1=O : 87.4
CC(C)n1c(=O)n(C)c2cnc3cc(F)c(-c4ccc(OCCCN5CCCCC5)nc4)cc3c21 + Cn1nnc2c(C(N)=O)ncn2c1=O : 69.8
COc1cc(C)[nH]c(=O)c1CN1CCc2c(Cl)cc(C(OC)C3COC3)c(Cl)c2C1=O (stereo unspecified) + Cn1nnc2c(C(N)=O)ncn2c1=O : 84.4
COc1ccc([C@@H](O)c2cc(-c3ncnc4cc(N5CCOCC5)ccc34)c(F)cc2Cl)nn1 + Cn1nnc2c(C(N)=O)ncn2c1=O : 35.5

Now for the molecule whose viability, T/C we want.
(Q) Which measured viability, T/C belongs to Cc1cc(C)c(CNC(=O)c2cc(-c3ccc(CN4CCOCC4)cc3)cc3c2cnn3C2CCCC2)c(=O)[nH]1 + Cn1nnc2c(C(N)=O)ncn2c1=O , tested on 292921-168-R tumor spheroid viability?
(A) 83.7

###

- System: 292921-168-R tumor spheroid viability
- EXPERIMENTAL PROTOCOL: Anticancer human tumor 292921-168-R cell line growth inhibition;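 also: spheroids exposed to compounds for 7 days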
- STUDY CONDITIONS: second compound 10 µM; first compound 0.0949 µM; active compounds read low; spheroids with HUVEC and MSC
MEASURED METRIC: viability, T/C (%)
# number only, unit % dropped from output

Cc1sc2c(c1C)C(c1ccc(Cl)cc1)=NC(CC(=O)Nc1ccc(O)cc1)c1nnc(C)n1-2 (centres undefined) + Cn1nnc2c(C(N)=O)ncn2c1=O : 111
CNCc1ccc(-c2cc(-c3nc(-c4ccc(S(=O)(=O)C(C)C)cc4)cnc3N)on2)cc1 + Cn1nnc2c(C(N)=O)ncn2c1=O : 71.7
Cn1ncnc1[C@H]1c2n[nH]c(=O)c3cc(F)cc(c23)N[C@@H]1c1ccc(F)cc1 + Cn1nnc2c(C(N)=O)ncn2c1=O : 55.8

Now for the compound whose viability, T/C we want.
(Q) I would be grateful if you could share the reported viability, T/C for O=C(c1cc(Cc2n[nH]c(=O)c3ccccc23)ccc1F)N1CCN(C(=O)C2CC2)CC1 + Cn1nnc2c(C(N)=O)ncn2c1=O .
(A) 94.7

###

- System: 292921-168-R tumor spheroid viability
- EXPERIMENTAL PROTOCOL: Anticancer human tumor 292921-168-R cell line growth inhibition;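 also: spheroids exposed to compounds for 7 days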
- STUDY CONDITIONS: second compound 0.3 µM; first compound 0.3 µM; active compounds read low; spheroids with HUVEC and MSC
MEASURED METRIC: viability, T/C (%)
# number only, unit % dropped from output

(Q) I would be grateful if you could share the reported viability, T/C for Cc1sc2c(c1C)C(c1ccc(Cl)cc1)=NC(CC(=O)Nc1ccc(O)cc1)c1nnc(C)n1-2 (centres undefined) + CC[C@@]1(O)C(=O)OCc2c1cc1n(c2=O)Cc2cc3c(CN(C)C)c(O)ccc3nc2-1 .
(A) 1.72

(Q) I would be grateful if you could share the reported viability, T/C for Cn1ncnc1[C@H]1c2n[nH]c(=O)c3cc(F)cc(c23)N[C@@H]1c1ccc(F)cc1 + CC[C@@]1(O)C(=O)OCc2c1cc1n(c2=O)Cc2cc3c(CN(C)C)c(O)ccc3nc2-1 .
(A) 4.48

(Q) I would be grateful if you could share the reported viability, T/C for O=C(c1cc(Cc2n[nH]c(=O)c3ccccc23)ccc1F)N1CCN(C(=O)C2CC2)CC1 + CC[C@@]1(O)C(=O)OCc2c1cc1n(c2=O)Cc2cc3c(CN(C)C)c(O)ccc3nc2-1 .
(A) 4.06

(Q) I would be grateful if you could share the reported viability, T/C for CNCc1ccc(-c2cc(-c3nc(-c4ccc(S(=O)(=O)C(C)C)cc4)cnc3N)on2)cc1 + CC[C@@]1(O)C(=O)OCc2c1cc1n(c2=O)Cc2cc3c(CN(C)C)c(O)ccc3nc2-1 .
(A) 5.23

###

- System: 292921-168-R tumor spheroid viability
- EXPERIMENTAL PROTOCOL: Anticancer human tumor 292921-168-R cell line growth inhibition;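 also: spheroids exposed to compounds for 7 days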
- STUDY CONDITIONS: second compound 0.3 µM; first compound 0.0949 µM; active compounds read low; spheroids with HUVEC and MSC
Each entry below carries its reported viability, T/C.
# number only, unit % dropped from output

Reference set, count: 2
Cn1ncnc1[C@H]1c2n[nH]c(=O)c3cc(F)cc(c23)N[C@@H]1c1ccc(F)cc1 + CC[C@@]1(O)C(=O)OCc2c1cc1n(c2=O)Cc2cc3c(CN(C)C)c(O)ccc3nc2-1 : 4.52
O=C(c1cc(Cc2n[nH]c(=O)c3ccccc23)ccc1F)N1CCN(C(=O)C2CC2)CC1 + CC[C@@]1(O)C(=O)OCc2c1cc1n(c2=O)Cc2cc3c(CN(C)C)c(O)ccc3nc2-1 : 4.24

(Q) Which measured viability, T/C belongs to Cc1sc2c(c1C)C(c1ccc(Cl)cc1)=NC(CC(=O)Nc1ccc(O)cc1)c1nnc(C)n1-2 (centres undefined) + CC[C@@]1(O)C(=O)OCc2c1cc1n(c2=O)Cc2cc3c(CN(C)C)c(O)ccc3nc2-1 , tested on 292921-168-R tumor spheroid viability?
(A) 3.16

(Q) Which measured viability, T/C belongs to CNCc1ccc(-c2cc(-c3nc(-c4ccc(S(=O)(=O)C(C)C)cc4)cnc3N)on2)cc1 + CC[C@@]1(O)C(=O)OCc2c1cc1n(c2=O)Cc2cc3c(CN(C)C)c(O)ccc3nc2-1 , tested on 292921-168-R tumor spheroid viability?
(A) 4.59

###

- Test system: 292921-168-R tumor spheroid viability
- EXPERIMENTAL PROTOCOL: Anticancer human tumor 292921-168-R cell line growth inhibition;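 also: spheroids exposed to compounds for 7 days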
- STUDY CONDITIONS: second compound 30 pM; first compound 0.949 µM; active compounds read low; spheroids with HUVEC and MSC
Each entry below carries its reported viability, T/C.
# number only, unit % dropped from output

Reference set, count: 3
CNCc1ccc(-c2cc(-c3nc(-c4ccc(S(=O)(=O)C(C)C)cc4)cnc3N)on2)cc1 + COc1cc2c(cc1O)CCNC21CSC2c3c(OC(C)=O)c(C)c4c(c3C(COC1=O)N1C(O)C3Cc5cc(C)c(OC)c(O)c5C(C21)N3C)OCO4 : 15.8
Cc1sc2c(c1C)C(c1ccc(Cl)cc1)=NC(CC(=O)Nc1ccc(O)cc1)c1nnc(C)n1-2 (centres undefined) + COc1cc2c(cc1O)CCNC21CSC2c3c(OC(C)=O)c(C)c4c(c3C(COC1=O)N1C(O)C3Cc5cc(C)c(OC)c(O)c5C(C21)N3C)OCO4 : 63.5
Cn1ncnc1[C@H]1c2n[nH]c(=O)c3cc(F)cc(c23)N[C@@H]1c1ccc(F)cc1 + COc1cc2c(cc1O)CCNC21CSC2c3c(OC(C)=O)c(C)c4c(c3C(COC1=O)N1C(O)C3Cc5cc(C)c(OC)c(O)c5C(C21)N3C)OCO4 : 41.4

(Q) I would be grateful if you could share the reported viability, T/C for O=C(c1cc(Cc2n[nH]c(=O)c3ccccc23)ccc1F)N1CCN(C(=O)C2CC2)CC1 + COc1cc2c(cc1O)CCNC21CSC2c3c(OC(C)=O)c(C)c4c(c3C(COC1=O)N1C(O)C3Cc5cc(C)c(OC)c(O)c5C(C21)N3C)OCO4 .
(A) 96.6
